- Test system: human leukemia K562 cells
- Assay Protocol: K562 cell growth inhibition assay (MTS)
- Type: cell-based
- Conditions Used: 72 h incubation, read-out: Median growth inhibitory concentration (IC50) of K562 cells
Assay Readout: IC50 (µM)
Write it as a number; the unit µM goes unstated.

Task: Fill in the recorded IC50 for this compound, with human leukemia K562 cells as test system: CC1C[S+]([O-])C(c2cc3ccccc3s2)=NO1 (centres unmarked)
Result: 2

Task: # repeat for CC1=C(COc2ccccc2)S(=O)(=O)CCS1(=O)=O
Result: 1

Task: # iterate: O=S1(=O)CCON=C1C1=Cc2ccccc2S1(=O)=O
Result: 0.5

Task: Follow-up item: CC1=C(CS(=O)(=O)c2ccccc2)S(=O)(=O)CCS1(=O)=O
Result: 1

Task: Follow-up item: Cc1ccc2sc(C3=NOCC[S+]3[O-])c(C)c2c1 (centres unmarked)
Result: 0.7

----------
- System: human leukemia K562 cells
- Assay Protocol: K562 cell growth inhibition assay (MTS)
- Format: cell-based
- Conditions Used: 72 h incubation, read-out: Median growth inhibitory concentration (IC50) of K562 cells
Hi there, I'd appreciate the recorded pIC50 for every entry that follows.
Entry type: numeric. Quantity: pIC50, the -log10 of concentration in molar units.

Task: pIC50 lookup needed for CCCCC1=C(c2ccccc2)S(=O)(=O)CCS1(=O)=O , thanks.
Result: 5.30

Task: Would you mind doing CC1C(C)S(=O)(=O)C(c2ccccc2)=CS1(=O)=O (stereo not shown) as well?
Result: 5.40

Task: Subsequent entry: O=S1(=O)CCON=C1c1cc2ccccc2s1
Result: 6.30

Task: # iterate: CCOC(=O)C1=C(C(=O)OCC)S(=O)(=O)CCS1(=O)=O [compound 20]
Result: 6.00

Task: Please do the same for COCC1=C(COC)S(=O)(=O)CCS1(=O)=O as well.
Result: 5.64

Task: Try this compound too: CCOC(=O)C1=C(C(=O)OCC)S(=O)(=O)CCS1(=O)=O [compound 1]
Result: 4.96

Task: Please answer likewise for [O-][S+]1CCON=C1c1cc2ccccc2[s+]1[O-] (stereo not shown)
Result: 6.00

Task: # repeat for CCOC(=O)c1ccc(C2=NOCC[S+]2[O-])s1 (stereo not shown)
Result: 6.05

Task: Now the same for [O-][S+]1CCON=C1c1cc2ccccc2s1 (stereo not shown)
Result: 6.15

Task: Same read-out for CCC1CS(=O)(=O)C(c2ccccc2)=C(c2ccccc2)S1(=O)=O (stereo not shown) ?
Result: 5.40

----------
Kindly supply the reported melting point values for the records listed here.

Task: What does the record list as melting point for CCOC(=O)C1=C(C(=O)OCC)S(=O)(=O)CCS1(=O)=O [compound 20] ?
Result: 154 to 156 °C

Task: And O=C(Nc1ccccc1)C1=NOCC[S+]1[O-] (centres unmarked) [compound 3] ?
Result: 150 to 154 °C

Task: // next record CCOC(=O)C1=C(c2ccccc2)S(=O)(=O)CCS1(=O)=O [compound 17]
Result: 190 to 191 °C

Task: And for [O-][S+]1CCON=C1c1nnc(-c2cccc(Cl)c2)o1 (centres unmarked) [compound 8] ?
Result: 208 to 210 °C

Task: Can you check O=C(Nc1ccccc1)C1=NOCCS1(=O)=O [compound 4] next?
Result: 206 to 207 °C

Task: Now the same for O=C(Nc1ccccc1)C1=C(C(F)(F)F)S(=O)(=O)CCS1(=O)=O [compound 25]
Result: 217 to 219 °C

Task: For CCOC(=O)C1=C(C(=O)OCC)S(=O)(=O)CCS1(=O)=O [compound 1] then?
Result: 68 to 70 °C

Task: Input CCOC(=O)C1=C(C(F)(F)F)S(=O)(=O)CCS1(=O)=O [compound 24]
Result: 142 to 145 °C

Where do the numbers come from? From patent US20120142676A1.
